Assay: qHTS Screen of the MIPE 4.0 Collection Against Ewings Sarcoma (EW8) (AID 1259255); further: nearly all actives have a fitted effect of over 35% in size
Details: EW8 Ewing sarcoma viability, CellTiter-Glo, 48 h; series mostly up to 45.8 µM
Method: There is a large unmet medical need for treatments for Ewing sarcoma, a pediatric sarcoma. […] Using the NCATS developed oncology compound library called the Mechanism of Interrogation Plate (MIPE), four Ewing sarcoma cell lines were evaluated (TC32, TC71, RDES, EW8). Compounds, in a 12-point titration series, were incubated with cells for 48 hours and the read out was cell viability (CellTiter-Glo from Promega). […]
Inconclusive results are not listed. Activity calls are given as the source filed them. The call rests on the fitted dose curve; in most records, active means well fitted inhibition curve with a large enough effect; inconclusive means small, poorly fitted or top-dose-only effect; inactive means no such curve, though single readings can be large or run the other way.
Returns: one label drawn from TRUE = active, FALSE = inactive

Completed entries (count: 3):
C=CCON=C(C[C@H]1O[C@@H]2O[C@]3(C)CC[C@@H]4[C@H](C)CC[C@@H]([C@H]1C)[C@@]24OO3)[C@H]1O[C@@H]2O[C@]3(C)CC[C@H]4[C@H](C)CC[C@@H]([C@@H]1C)[C@@]24OO3; TRUE
CN1CCN(c2ccc([N+](=O)[O-])c3no[n+]([O-])c23)CC1; TRUE
C[C@]12CC[C@H]3[C@@H](CCC4=CC(=O)CC[C@@]43C)[C@H]1CC[C@H]2OC(=O)CCC1CCCC1; FALSE

Problem: # outcome recorded in this test, key = CCC(=O)OC1CCC2C3CCC4=CC(=O)CC[C@@]4(C)C3CC[C@]12C (stereo partly drawn)
Solution: FALSE
